Test system: HS 578T breast
PROTOCOL DESCRIPTION: NCI tumour cell line growth inhibition, 48 h; in the data active = GI50 below about 0.43 µM; inactive = the rest
Possible outcomes: 1 (yes) = active, 0 (no) = inactive

COMPOUND: C=C1C(=O)O[C@H]2[C@H]1CC/C(COC(=O)c1cc3cc(OC)ccc3[nH]1)=C\CC[C@@]1(C)O[C@@H]21
ASSAYED SYSTEM: HS 578T breast
LABEL CLASS: 0 (no)
--
COMPOUND: CS(=O)(=O)Nc1ccc(-c2ccc3c(NC(=O)C4CC4)n[nH]c3c2)cc1
ASSAYED SYSTEM: HS 578T breast
LABEL CLASS: 0 (no)
--
COMPOUND: CCOC(=O)[C@@H](C)C[C@H](Cc1ccccc1)NC(=O)c1csc([C@@H](C[C@H](C(C)C)N(C)C(=O)[C@@H](NC(=O)[C@H]2CCCCN2C)C(C)(C)C)OC(C)=O)n1
ASSAYED SYSTEM: HS 578T breast
LABEL CLASS: 1 (yes)
--
COMPOUND: COC(=O)C(Cc1ccccc1)N/C=C\C(=O)c1ccc(Cl)cc1 (stereo not drawn)
ASSAYED SYSTEM: HS 578T breast
LABEL CLASS: 0 (no)
--
COMPOUND: CC(=O)n1c(-c2ccc(Cl)cc2)nc2c(c1=O)C(c1ccc(Cl)cc1)c1sc3c(Cl)cccc3c1O2 (stereo not drawn)
ASSAYED SYSTEM: HS 578T breast
LABEL CLASS: 1 (yes)
--
COMPOUND: COC(=O)NC/C=C\c1nc(CC/C=C\C(=O)OC2CC3CC(=O)O[C@@H](/C=C/CC(C)C)C[C@@H]4CCC(C)C(C[C@@H](OC)CC(C2)O3)O4)co1 (stereo partly drawn)
ASSAYED SYSTEM: HS 578T breast
LABEL CLASS: 0 (no)
--
COMPOUND: CNC(=O)c1ccc(-c2cnc3ncc(Cc4ccc5ncccc5c4)n3n2)cc1F
ASSAYED SYSTEM: HS 578T breast
LABEL CLASS: 0 (no)
--
COMPOUND: CN(C)CCNC(=O)Nc1c(C#N)[n+]([O-])c2cc(Cl)c(Cl)cc2[n+]1[O-]
ASSAYED SYSTEM: HS 578T breast
LABEL CLASS: 0 (no)
--
COMPOUND: CN1CCN(Cc2ccc(NC(=O)c3ccc(C(C)(C)C)c(C#Cc4cnc5cccnn45)c3)cc2C(F)(F)F)CC1
ASSAYED SYSTEM: HS 578T breast
LABEL CLASS: 0 (no)
--
COMPOUND: Cc1ccc(C(=O)CC(Sc2cccc(Cl)c2Cl)c2ccc(Cl)cc2)cc1C (stereo not drawn)
ASSAYED SYSTEM: HS 578T breast
LABEL CLASS: 0 (no)
--
COMPOUND: CCCCCC(=O)Oc1ccc(/C(=C(\C)c2ccc(OC)cc2)c2ccc(OCCN3CCCCC3)cc2)cc1
ASSAYED SYSTEM: HS 578T breast
LABEL CLASS: 0 (no)
--
COMPOUND: NCCN1CCN(c2nccc(-c3ccc4ccccc4c3)n2)CC1
ASSAYED SYSTEM: HS 578T breast
LABEL CLASS: 0 (no)
--
COMPOUND: Nc1nc(Nc2ccc(OCc3cccc(F)c3)cc2)c2c(n1)[nH]c1ccc(O)cc12
ASSAYED SYSTEM: HS 578T breast
LABEL CLASS: 0 (no)

meta.source: PubChem BioAssay (NCI)
